Recorded values, source ChEMBL document CHEMBL1140534.

subject of test: Transient receptor potential cation channel subfamily V member 1 (Homo sapiens, UniProt Q8NER1)
Sequence (Q8NER1 whole entry): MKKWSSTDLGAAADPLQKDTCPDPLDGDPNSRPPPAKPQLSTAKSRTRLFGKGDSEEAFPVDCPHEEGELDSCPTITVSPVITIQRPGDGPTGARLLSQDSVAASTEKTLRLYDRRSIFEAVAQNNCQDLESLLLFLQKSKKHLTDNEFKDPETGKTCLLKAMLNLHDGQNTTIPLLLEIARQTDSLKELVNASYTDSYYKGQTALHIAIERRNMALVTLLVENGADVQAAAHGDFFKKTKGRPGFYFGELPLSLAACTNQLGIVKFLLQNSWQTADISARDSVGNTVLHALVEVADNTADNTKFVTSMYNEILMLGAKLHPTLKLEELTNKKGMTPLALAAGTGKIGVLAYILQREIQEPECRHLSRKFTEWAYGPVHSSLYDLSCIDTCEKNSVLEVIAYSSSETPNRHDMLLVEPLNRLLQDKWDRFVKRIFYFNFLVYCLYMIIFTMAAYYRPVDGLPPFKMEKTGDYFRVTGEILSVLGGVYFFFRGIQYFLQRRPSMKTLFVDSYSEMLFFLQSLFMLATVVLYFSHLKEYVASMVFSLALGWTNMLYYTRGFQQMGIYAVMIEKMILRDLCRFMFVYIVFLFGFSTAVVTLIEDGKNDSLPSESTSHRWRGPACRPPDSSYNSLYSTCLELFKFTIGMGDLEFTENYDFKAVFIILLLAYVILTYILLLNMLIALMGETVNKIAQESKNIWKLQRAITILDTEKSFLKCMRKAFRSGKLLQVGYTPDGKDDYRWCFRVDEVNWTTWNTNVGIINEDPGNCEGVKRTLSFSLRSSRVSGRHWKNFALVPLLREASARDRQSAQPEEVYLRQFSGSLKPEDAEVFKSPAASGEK
experimental protocol: Antagonist activity at human recombinant TRPV1 expressed in HEK293 cells assessed as inhibition of capsaicin-induced calcium by FLIPR method
observed property: IC50 (nM)
One number for each entry, in nM.

>  <compound>
COc1ccc2c(c1)CCC(NC(=O)Nc1cccc3cnccc13)C2Cc1ccc(C#N)cc1 (centres undefined)

>  <test value>
21

$$$$

Shift focus to the following entry.
Ask: Which IC50 reading was recorded for the compound O=C(Nc1cccc2cnccc12)NC1CCc2c(Cl)cccc2C1Cc1ccccc1 (centres undefined) ?
Result: 16
